Molecular target: p40PX (GST-p40PX, aa 1-148) (Homo sapiens)
Construct: PX domain, residues 1-148, N-terminal GST fusion (pGEX; glutathione-purified, detected with anti-GST), E. coli
Sequence (Q15080 1-148): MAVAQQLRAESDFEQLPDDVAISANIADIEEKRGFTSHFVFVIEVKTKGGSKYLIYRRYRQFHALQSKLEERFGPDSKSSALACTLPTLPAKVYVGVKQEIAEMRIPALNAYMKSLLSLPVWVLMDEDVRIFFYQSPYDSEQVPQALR
Assay: SPR, Biacore […], L1 chip with liposomes
Details: PC:PE:PI(3)P 75:20:5 liposomes, PC/PE control subtracted; 150 mM NaCl, 50 mM HEPES pH 7.5, 25 °C; own-purified protein
recorded_endpoint: Kd
The answer should read as a number with its unit following.

// Kd lookup, molecule = "CCCCCCCCCCCCCCCC(=O)OC[C@H](COP(=O)(O)O[C@@H]1[C@H](O)[C@H](OP(=O)(O)O)[C@@H](O)[C@H](O)[C@H]1O)OC(=O)CCCCCCCCCCCCCCC" , result: 195 nM
